# System: A-375 (melanoma)
# testName: MTS cell viability assay, A-375
# Format: cell-based
# studyConditions: Homo sapiens, 72 h
Parameter: IC50. Scope: all listed entries.
Please reply with the bare figure in µg/mL and do not write the unit itself.

C=C(C)[C@@H]1CC[C@]2(COC(=O)COC)CC[C@]3(C)[C@H](CC[C@@H]4[C@@]5(C)CC[C@H](OC(C)=O)C(C)(C)[C@@H]5CC[C@]43C)[C@@H]12; 7
CC(C)[C@@H]1CC[C@]2(COC(=O)CBr)CC[C@]3(C)[C@H](CC[C@@H]4[C@@]5(C)Cc6cnoc6C(C)(C)[C@@H]5CC[C@]43C)[C@@H]12; 25
C=C(C)[C@@H]1CC[C@]2(COC(=O)CBr)CC[C@]3(C)[C@H](CC[C@@H]4[C@@]5(C)C=C(C#N)C(=O)C(C)(C)[C@@H]5CC[C@]43C)[C@@H]12; 4

**Q:** Item C=C(C)[C@@H]1CC[C@]2(C(=O)O)CC[C@]3(C)[C@H](CC[C@@H]4[C@@]5(C)CC[C@H](O)C(C)(C)[C@@H]5CC[C@]43C)[C@@H]12 [Compound 1, reference compound] has what recorded IC50?
**A:** 51

* * *

# Tested on: A-375 (melanoma)
# testName: MTS cell viability assay, A-375
# Format: cell-based
# studyConditions: Homo sapiens, 72 h
Parameter: IC50. Scope: all listed entries.
Please reply with the bare figure in µg/mL and do not write the unit itself.

Study these solved cases before continuing.
CC(C)[C@@H]1CC[C@]2(CO)CC[C@]3(C)[C@H](CC[C@@H]4[C@@]5(C)Cc6cnoc6C(C)(C)[C@@H]5CC[C@]43C)[C@@H]12; 10
CC(C)[C@@H]1CC[C@]2(C(=O)O)CC[C@]3(C)[C@H](CC[C@@H]4[C@@]5(C)CCC(=O)C(C)(C)[C@@H]5CC[C@]43C)[C@@H]12; 22
C=C(C)[C@@H]1CC[C@]2(CNCCCl)CC[C@]3(C)[C@H](CC[C@@H]4[C@@]5(C)CC[C@H](O)C(C)(C)[C@@H]5CC[C@]43C)[C@@H]12; 20

**Q:** Item `C=C(C)[C@@H]1CC[C@]2(COC(=O)CBr)CC[C@]3(C)[C@H](CC[C@@H]4[C@@]5(C)CCC(=O)C(C)(C)[C@@H]5CC[C@]43C)[C@@H]12` has what recorded IC50?
**A:** 14

**Q:** And what about the compound `C=C(C)[C@@H]1CC[C@]2(C(=O)O)CC[C@]3(C)[C@H](CC[C@@H]4[C@@]5(C)CC[C@H](NCCc6ccc(O)cc6)C(C)(C)[C@@H]5CC[C@]43C)[C@@H]12` ?
**A:** 5
